molecular target: T1, EndoF1 (Elizabethkingia meningoseptica (assumed), UniProt P36911); assay: ELISA; wells of 96-well plates coated with EGFR protein fragment or unrelated antigens; purified sdAbs added; protein A-HRP, TMB, absorbance at 450 nm; details: both partners purified
T1 construct: EndoF1, unrelated antigen used as negative control
T1 sequence (P36911 51-339): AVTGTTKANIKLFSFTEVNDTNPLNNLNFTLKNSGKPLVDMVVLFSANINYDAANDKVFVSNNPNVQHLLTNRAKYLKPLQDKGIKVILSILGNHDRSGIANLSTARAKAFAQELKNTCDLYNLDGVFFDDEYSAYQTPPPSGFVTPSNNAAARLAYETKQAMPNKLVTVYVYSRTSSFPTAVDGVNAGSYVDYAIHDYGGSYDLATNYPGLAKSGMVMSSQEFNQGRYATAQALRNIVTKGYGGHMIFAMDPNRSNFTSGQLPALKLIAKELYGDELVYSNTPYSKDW
measurement_name: binding result

binder="anti-EGFR single-domain antibody aEG4D9 (purified) (VHH, fully human VH domain on the V3-23/D47 framework with diversified CDR1-3; Fully human VH-only single-domain antibody (about 15 kDa), selected from the Source BioScience human domain antibody library; subcloned NcoI/NotI into pET22b(+); also called anti-EGFR sdAb; source: E. coli BL21 (DE3), pET22b(+), purified (Ni-NTA)) VHH: QVQLLESGGGLVQPGGSLRLSCAASGDMLSPDNMTWVRQAPGKGLEWVSTIHKTDGSTYYADSVKGRFTISRDNSKNTLYLQMNSLRAEDTAVYYCAGLRSRGLSSKYLEYWGQGTLVTVSS" reported_measurement="no binding"
binder="anti-EGFR single-domain antibody aEG1B4 (purified) (VHH, fully human VH domain on the V3-23/D47 framework with diversified CDR1-3; Fully human VH-only single-domain antibody (about 15 kDa), selected from the Source BioScience human domain antibody library; subcloned NcoI/NotI into pET22b(+); also called anti-EGFR sdAb; source: E. coli BL21 (DE3), pET22b(+), purified (Ni-NTA)) VHH: QVQLLESGGGLVQPGGSLRLSCAASGVNVSNEVMSWVRQAPGKGLEWVSTIANHSGSTYYADSVKGRFTISRDNSKNTLYLQMNSLRAEDTAVYYCATLYSGATKQLEYWGQGTLVTVSS" reported_measurement="no binding"
binder="anti-EGFR single-domain antibody aEG6B2 (purified) (VHH, fully human VH domain on the V3-23/D47 framework with diversified CDR1-3; Fully human VH-only single-domain antibody (about 15 kDa), selected from the Source BioScience human domain antibody library; subcloned NcoI/NotI into pET22b(+); also called anti-EGFR sdAb; source: E. coli BL21 (DE3), pET22b(+), purified (Ni-NTA)) VHH: QVQLLESGGGLVQPGGSLRLSCAASGFNVNPKYMTWVRQAPGKGLEWVSSIRSPGGSTYYADSVKGRFTISRDNSKNTLYLQMNSLRAEDTAVYYCASVSRDEKYMRFWGQGTLVTVSS" reported_measurement="no binding"
